Experiment: NCI Yeast Anticancer Drug Screen. Data for the rad50 strain (AID 155);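 further: 0% = growth of vehicle-only cultures of the same strain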
Details: S. cerevisiae rad50 strain growth inhibition; at 50.0 µM; hits give high values
The panel holds about 79,000 compounds, 15% with a hit somewhere; the sample as a whole holds those more often.
Tick YES if growth inhibition is 10% or greater. Tick NO if growth inhibition is less than 10%.

## Input growth inhibition >= 10% for CC1(COC(=O)C2(C)CO2)CO1 (stereo unspecified) ?
## Output YES

## Input growth inhibition >= 10% for `Cn1ccnc1SC(=O)C(Cl)(c1ccccc1)c1ccccc1` ?
## Output NO

## Input growth inhibition >= 10% for O=C(OCC1OC(n2nc(SCc3ccccc3)c(=S)[nH]c2=O)C(OC(=O)c2ccccc2)C1OC(=O)c1ccccc1)c1ccccc1 (stereo unspecified) ?
## Output NO

## Input growth inhibition >= 10% for `CC(=O)Oc1cccc2c1C(=O)c1ccccc1C2=O` ?
## Output YES

## Input growth inhibition >= 10% for CC12CC(=O)C3C(CCC4=CC(=O)CCC43C)C1CC=C2CC(=O)O (stereo unspecified) ?
## Output NO

## Input growth inhibition >= 10% for CNCC(=O)NC(CO)C(=O)NC(CO)C(=O)NC1C(C(N)=O)OC(n2ccc(N)nc2=O)C(O)C1O (stereo unspecified) ?
## Output YES

## Input growth inhibition >= 10% for `CCOC(=O)c1c[nH]c2c(C(F)(F)F)cccc2c1=O` ?
## Output YES

## Input growth inhibition >= 10% for `Fc1cccc(Cl)c1/C=N\N=C1c2ccccc2-c2ccccc21` ?
## Output NO

## Input growth inhibition >= 10% for O=S1(=O)CC(O)C(Br)C1 (stereo unspecified) ?
## Output NO

## Input growth inhibition >= 10% for NCC1OCOC2C(C(=O)O)OCOC12 (stereo unspecified) ?
## Output YES

## Input growth inhibition >= 10% for `Brc1cccc2c(SCCCCCCSc3c4ccccc4nc4c(Br)cccc34)c3ccccc3nc12` ?
## Output NO

* * *

Experiment: NCI Yeast Anticancer Drug Screen. Data for the bub3 strain (AID 167)
Conditions: S. cerevisiae bub3 mutant strain, at 50.0 µM, hits give high values
This is part of a sample that, as a whole, favours compounds with a hit. Of some 79,000 tested, about 15% had one in any assay. The source made the active and inactive calls. Cut-off read from the data, not from the text of the source: active = growth inhibition above about 70%; inactive = the rest.
Record form. Attribute: growth inhibition. Fill in for each entry.

## Input Give the measured growth inhibition for `O=C(O)COc1cc(-c2ccccc2)nc2ccc(F)cc12`
## Output 3.1% (inactive)

## Input Give the measured growth inhibition for `O=C(N=Nc1c(O)[nH]c2ccccc12)C(=O)N=Nc1c(O)[nH]c2ccccc12`
## Output 7.15% (inactive)

## Input Give the measured growth inhibition for `CCNC(=O)c1csnn1`
## Output -18.1% (inactive)

## Input Give the measured growth inhibition for `O=C(/C=C/c1ccc(OCCSCCCCCCCCCCSCCOc2ccc(/C=C/C(=O)c3ccc(Cl)cc3)cc2)cc1)c1ccc(Cl)cc1`
## Output -8.95% (inactive)

## Input Give the measured growth inhibition for `O=[N+]([O-])c1ccc(S(=O)(=O)/N=C/c2ccccc2)cc1`
## Output 14.4% (inactive)

## Input Give the measured growth inhibition for `C/C(=C/C(=O)Nc1ccc2ccccc2c1)Nc1ccc2ccccc2c1`
## Output 10.4% (inactive)

* * *

Experiment: NCI Yeast Anticancer Drug Screen. Data for the mlh1 rad18 strain (AID 175)
Settings: S. cerevisiae mlh1 rad18 strain growth inhibition; at 50.0 µM
Compounds without any hit were thinned out: in the full panel of roughly 79,000, 15% have a hit. Active and inactive are the calls of the source. Cut-off read from the data, not from the text of the source: active = growth inhibition above about 70%; inactive = the rest.
API: response.call in class 1 = active, class 0 = inactive

## Input What did this assay record as the result for `O=C1OC(c2ccccc2)=N/C1=C\c1ccco1` ?
## Output class 0

## Input What did this assay record as the result for CC(=O)OCC1OC(Cl)C(NS(=O)(=O)Cc2ccccc2)C(OC(C)=O)C1OC(C)=O (stereo not given) ?
## Output class 0

## Input What did this assay record as the result for `O=C(COc1ccc(Cl)cc1)Oc1c(Cl)cc(Cl)cc1Cl` ?
## Output class 1

## Input What did this assay record as the result for O=C1CSC(c2cccc(O)c2)N1c1nncs1 (stereo not given) ?
## Output class 0

## Input What did this assay record as the result for `O=c1c(-c2ccccc2)c(O)on1/C=C1/C=CC=N1` ?
## Output class 0

## Input What did this assay record as the result for `O=C(O)/C=C/SCc1ccccc1` ?
## Output class 0

## Input What did this assay record as the result for `c1ccc2c(c1)Cc1ccc3ccccc3c1-2` ?
## Output class 0

## Input What did this assay record as the result for `CSC(=S)n1nc(-c2ccccc2)c(N=Nc2ccccc2[N+](=O)[O-])c1-c1ccccc1` ?
## Output class 0

## Input What did this assay record as the result for `CC(C)c1cccc(C(C)(C)C)n1` ?
## Output class 0

## Input What did this assay record as the result for CCCCCCC1NC(CCCCCC)N2C(CCCCCC)N12 (stereo not given) ?
## Output class 0

## Input What did this assay record as the result for `O=C(Nc1ccccc1)C(=O)Nc1ccccc1` ?
## Output class 0

## Input What did this assay record as the result for `CN(C)C(=NN)N(C)C` ?
## Output class 0

## Input What did this assay record as the result for [C-]#[N+]C1(c2ccccc2)C2CC3CC(C2)CC1C3 (stereo not given) ?
## Output class 0

## Input What did this assay record as the result for `CN(C)CCCN` ?
## Output class 0

## Input What did this assay record as the result for `C/C(CC/C(C)=N/O)=N\O` ?
## Output class 0

## Input What did this assay record as the result for `CCO/C(O)=c1/s/c(=C2/SC(=S)N(c3ccc(C)cc3)C2=O)n(-c2ccccc2)c1=N` ?
## Output class 0

## Input What did this assay record as the result for `Cc1nc2c(cc1C(=O)N/N=C/c1ccc([N+](=O)[O-])cc1)c(=O)n(C)c(=O)n2C` ?
## Output class 0

## Input What did this assay record as the result for `Cn1cc([N+](=O)[O-])cc1C(=O)Nc1cc(C(=O)Nc2ccc(S(=O)(=O)O)c3cc(S(=O)(=O)O)ccc23)n(C)c1` ?
## Output class 0

## Input What did this assay record as the result for `CCOC(=O)C(C(=O)OCC)C(C(=O)OCC)C(=O)OCC` ?
## Output class 0

## Input What did this assay record as the result for O=C(CC(C(=O)c1ccc(F)cc1)c1ccsc1)c1cccs1 (stereo not given) ?
## Output class 0

## Input What did this assay record as the result for CC12CCC(Cl)(CC1O)C2(C)C (stereo not given) ?
## Output class 0

## Input What did this assay record as the result for CC1CP(=O)(Cc2ccccc2)C(C)(c2ccccc2)C1=O (stereo not given) ?
## Output class 0

## Input What did this assay record as the result for CCOC(=O)C1/C(=C\O)C(=O)c2cc(OC)c(OC)cc2C1c1ccc(OC)c(OC)c1 (stereo not given) ?
## Output class 0

## Input What did this assay record as the result for `Cc1nc2ccc(N)cc2[nH]c1=O` ?
## Output class 0

## Input What did this assay record as the result for `CCOC(=O)c1nc2ccc(C(F)(F)F)cc2nc1Nc1ccc(Cl)c(Cl)c1` ?
## Output class 0

* * *

Experiment: NCI Yeast Anticancer Drug Screen. Data for the bub3 strain (AID 167)
Settings: S. cerevisiae bub3 mutant strain, at 50.0 µM
The panel holds about 79,000 compounds, 15% with a hit somewhere; the sample as a whole holds those more often. Calls of active or inactive are those of the source. No stated cut-off is given here; in the data, active means growth inhibition above about 70%; inactive means the rest.
API: response.call in active, inactive

## Input What did this assay record as the result for `CCCCCCCCC[N+]12CC[N+](CCCCCCCCC)(CC1)CC2` ?
## Output inactive

## Input What did this assay record as the result for `Cc1cc(=O)c2cc(N=Cc3ccc(N(C)C)cc3)ccc2o1` ?
## Output inactive

## Input What did this assay record as the result for `CCS(=O)(=O)c1ccc(NC(=O)OC2CCCCCC2)cc1` ?
## Output inactive

## Input What did this assay record as the result for `Cc1nc2ccc(S(=O)(=O)Nc3ccccc3Cl)cc2c(=O)n1NC(=O)CNc1ccccc1Cl` ?
## Output inactive

## Input What did this assay record as the result for COc1cc2c(c(OC)c1OC)CCC1(C)C(=O)NN=C21 (stereo not given) ?
## Output inactive

## Input What did this assay record as the result for `CCCS(=O)(=O)N1CCCC1` ?
## Output inactive

## Input What did this assay record as the result for `O=C(N/N=C/C=C/c1ccccc1)NNC(=O)c1cc([N+](=O)[O-])cc([N+](=O)[O-])c1` ?
## Output inactive

## Input What did this assay record as the result for `Nc1cccc(C(CC(=O)O)CC(=O)O)c1` ?
## Output inactive

## Input What did this assay record as the result for `COC(=O)CCOc1ccc(C)cc1` ?
## Output inactive

## Input What did this assay record as the result for `O=C(O)CCC1(c2ccccc2)CCCCC1` ?
## Output inactive

## Input What did this assay record as the result for CNC(CCc1ccccc1)C(=O)O (stereo not given) ?
## Output inactive

## Input What did this assay record as the result for `Cc1cnc2ccccc2c1` ?
## Output inactive

## Input What did this assay record as the result for `O=C(c1no[n+]([O-])c1C(=O)c1csc2ccccc12)c1csc2ccccc12` ?
## Output inactive

## Input What did this assay record as the result for `O=C(c1ccc(F)cc1)c1ccc2ccccc2c1C(=O)O` ?
## Output inactive

## Input What did this assay record as the result for `O=[N+]([O-])c1cccc2c(-c3nccc4c([N+](=O)[O-])cccc34)nccc12` ?
## Output inactive

## Input What did this assay record as the result for `CC(=O)c1c(Cl)cc(Cl)c(Cl)c1Cc1c(Cl)c(Cl)cc(Cl)c1C(C)=O` ?
## Output inactive

## Input What did this assay record as the result for `Cc1c(-c2ccccc2)nnn1-c1ccc(F)cc1F` ?
## Output inactive

## Input What did this assay record as the result for COc1ccc(CC2(C(=O)O)NCCc3cc(O)c(OC)cc32)cc1O (stereo not given) ?
## Output inactive

## Input What did this assay record as the result for `O=C(COc1ccccc1)OC1CCCC1` ?
## Output inactive

## Input What did this assay record as the result for `CCCCSc1n[nH]c(=O)nc1N` ?
## Output inactive

## Input What did this assay record as the result for O=C(NNc1ccccc1)C1C2CC3OC(=O)C1C3C2 (stereo not given) ?
## Output active

## Input What did this assay record as the result for `Nc1nnnn1-c1cccc(Cl)c1` ?
## Output inactive

## Input What did this assay record as the result for `Cc1ccccc1NC(=O)NNc1ccccc1` ?
## Output inactive

## Input What did this assay record as the result for CC(=O)OC1C(COC(N)=O)OC(n2c(-c3ccc(C)cc3)cc(-c3ccccc3)c(C#N)c2=O)C(OC(C)=O)C1OC(C)=O (stereo not given) ?
## Output inactive

## Input What did this assay record as the result for OC1CCC2=C(C1)C1CCC2C1 (stereo not given) ?
## Output inactive
